# pEC50 annotations
test system: Ba/F3-WT (wild type) cells; test: Ba/F3 Proliferation Assay, Ba/F3-WT (wild type) cells with mIL-3 (Resazurin); assay type: cell-based; details: Mus musculus, BaF3, 48 h, Ba/F3-WT cells +mIL-3, 48-hour incubation
pEC50: −log10 of the molar value.

[
  {
    "Molecule": "CC(C)(C)n1ccc(-c2cc3ncccc3c(OC[C@@H]3CNCCCO3)n2)c1",
    "Measurement target": "Ba/F3-WT (wild type) cells",
    "Property name": "pEC50",
    "Result value": "< 5.00"
  }
]

Dear colleague, I am looking for the recorded pEC50 of the following molecule: Cc1cc(-c2cc3ncccc3c(OC[C@@H]3CNCCO3)n2)c(C)n1C
< 5.00

Dear colleague, I am looking for the recorded pEC50 of the following molecule: C=Cc1cnc2cc(-c3cnn(C(C)(C)C)c3)nc(OC[C@@H]3CNCC(C)(C)O3)c2c1 (stereo in doubt)
< 5.00

====

target: Ba/F3-Syk cells (Homo sapiens); construct: fused on or other part: Possible but unprinted fusion partner: TEL (ETV6), the usual partner for Ba/F3 lines transformed by Syk; Nothing on a partner is printed; assay: Ba/F3 Proliferation Assay, Ba/F3-Syk cells (Resazurin); details: 48-hour incubation
Property name: pEC50
Answer as the number alone; pEC50 is minus log10 of concentration in mol/L.

[
  {
    "Molecule smiles": "C[C@@H](Oc1cc(-c2cnn(C)c2)cc2ncccc12)[C@@H]1CNCC(C)(C)O1",
    "Result value": 7.16
  },
  {
    "Molecule smiles": "CC(C)(C)n1cc(-c2cc3ncccc3c(OC[C@H]3CNCCCO3)n2)cn1",
    "Result value": 7.23
  },
  {
    "Molecule smiles": "CC1(C)CNC[C@@H](COc2cc(-c3cnn(C4CC4)c3)cc3ncccc23)O1",
    "Result value": 7.29
  }
]

I'm curious: which pEC50 was measured for CC(C)n1cc(-c2cc(OC[C@@H]3CNC[C@@H](C)O3)c3nccnc3c2)cn1 tested on Ba/F3-Syk cells (Homo sapiens)?
8.00

I'm curious: which pEC50 was measured for CC(C)n1ccc(-c2cc(O[C@H](C)[C@@H]3CNCCO3)c3cccnc3c2)c1 tested on Ba/F3-Syk cells (Homo sapiens)?
7.44

====

test system: Ba/F3-WT (wild type) cells; assay: Ba/F3 Proliferation Assay, Ba/F3-WT (wild type) cells with mIL-3 (Resazurin); format: cell-based; conditions: Mus musculus, BaF3, 48 h, Ba/F3-WT cells +mIL-3, 48-hour incubation
The threshold is 2000 nM. Values of EC50 beneath it are tagged YES; values meeting or exceeding it are tagged NO.

[
  {
    "Molecule": "CC1(C)CNC[C@@H](COc2nc(-c3cnn(CC(F)F)c3)cc3ncccc23)O1 [Compound 6.20]",
    "Class label": "NO"
  },
  {
    "Molecule": "CC(F)(F)Cn1cc(-c2cc3ncccc3c(OC[C@@H]3CNCC(C)(C)O3)n2)cn1 [Compound 6.39]",
    "Class label": "YES"
  },
  {
    "Molecule": "c1cnc2cc(-c3cnn(CC4CC4)c3)nc(OC[C@@H]3CNCCO3)c2c1 [Compound 6.12]",
    "Class label": "YES"
  },
  {
    "Molecule": "CC(C)n1ccc(-c2cc3ncccc3c(OC[C@@H]3CNCC4(CC4)O3)n2)c1 [Compound 6.22]",
    "Class label": "NO"
  },
  {
    "Molecule": "CCn1ccc(-c2cc3ncccc3c(OC[C@@H]3CNCC(C)(C)O3)n2)c1 [Compound 6.19]",
    "Class label": "NO"
  },
  {
    "Molecule": "CC1(C)CNC[C@@H](COc2nc(-c3cnn(CC4CC4)c3)cc3ncccc23)O1 [Compound 6.21]",
    "Class label": "YES"
  },
  {
    "Molecule": "Cn1cc(-c2cc3ncccc3c(OC[C@@H]3CNCC4(CC4)O3)n2)cn1 [Compound 2.43]",
    "Class label": "NO"
  },
  {
    "Molecule": "CC(C)(C)n1ccc(-c2cc(OC[C@@H]3CNCCO3)c3cccnc3c2)c1 [Compound 3.15]",
    "Class label": "NO"
  }
]

Does the reported EC50 of the following molecule sit strictly below 2000 nM? CCc1ccnc2cc(-c3cnn(C(C)(C)C)c3)nc(OC[C@@H]3CNCC(C)(C)O3)c12 [Compound 14.14]
YES

Does the reported EC50 of the following molecule sit strictly below 2000 nM? C[C@@H](Oc1cc(-c2cnn(C)c2)cc2ncccc12)[C@@H]1CNCC(C)(C)O1 [Compound 11.4]
YES

Does the reported EC50 of the following molecule sit strictly below 2000 nM? CC(C)n1cc(-c2cc3ncccc3c(OC[C@@H]3CNCC(C)(C)O3)n2)cn1 [Compound 2.45]
YES

Does the reported EC50 of the following molecule sit strictly below 2000 nM? Clc1csc(-c2cc3ncccc3c(OC[C@@H]3CNCCO3)n2)c1 [Compound 2.34]
YES

Does the reported EC50 of the following molecule sit strictly below 2000 nM? CC(C)n1ccc(-c2cc(OC[C@@H]3CNCC(C)(C)O3)c3nccnc3c2)c1 [Compound 8.3]
YES

Does the reported EC50 of the following molecule sit strictly below 2000 nM? Cn1cc(-c2cc(OC[C@@H]3CNCCO3)c3cccnc3c2)cn1 [Compound 2]
NO

The values you see were collected from patent US20250263408A1.
